As shown below, each of these compounds has a reported GI50 value.
Test system: SK-MEL-28
Assay remarks: NCI tumour cell line growth inhibition, 48 h
Activity calls are given as the source filed them. Rule as the data show it: active = GI50 up to about 1.1 µM and inactive = higher.

>>> endpoint_result("NCCNS(=O)(=O)c1ccc(N)cc1")
"> 100 µM (inactive)"
>>> endpoint_result("O=C(c1ccccc1)C(c1ccccc1)C1(O)C(=O)Nc2ccc(Br)cc21 (centres undefined)")
"46.1 µM (inactive)"
>>> endpoint_result("c1ccc2c(c1)-c1ccccc1C2NC1=NCCO1")
"24.9 µM (inactive)"
>>> endpoint_result("O=C(C[C@@H]1NCCC[C@H]1O)Cn1cnc2cc(Br)c(Cl)cc2c1=O")
"0.0274 µM (active)"
>>> endpoint_result("CC(C)(C)C1CCC2c3c([nH]c4ccccc34)C3C(=O)N(c4ccc([N+](=O)[O-])cc4)C(=O)C3C2C1 (centres undefined)")
"96.6 µM (inactive)"

// field: GI50; key: "CCn1cc(C(=O)O)c(=O)c2cc(F)c(N3CCNCC3)nc21" ; value = > 100 µM (inactive)

// field: GI50; key: "COc1ccc2nc(NC(=O)/C(C#N)=C/c3ccccc3)sc2c1" ; value = 66.7 µM (inactive)

// field: GI50; key: "CC(=O)O[C@H]1C(=O)O[C@@H]2C[C@H]3C(C)=CC(=O)[C@@H](O)[C@]3(C)[C@H]3[C@@]4(O)OC[C@]32[C@@H]1[C@@H](C)[C@H]4O" ; value = 0.0281 µM (active)

// field: GI50; key: COc1ccc(N[S+]([O-])CCCc2ccccc2)cc1 (centres undefined) ; value = > 100 µM (inactive)

----------
As shown below, each of these compounds has a reported GI50 value.
Tested on: SF-539
Assay remarks: NCI tumour cell line growth inhibition, 48 h
Activity calls are given as the source filed them. Rule as the data show it: active = GI50 up to about 1.1 µM and inactive = higher.

>>> endpoint_result("C=CC(O)(CBr)CCC(Br)C(C)(C)Cl (stereo unspecified)")
"> 10 µM (inactive)"
>>> endpoint_result("O=C1Nc2ccccc2/C1=N/NC(=S)Nc1ccc([N+](=O)[O-])cc1")
"13.8 µM (inactive)"
>>> endpoint_result("O=P(O)(O)CN1CCNCCN(CP(=O)(O)O)CCNCC1")
"11.7 µM (inactive)"
>>> endpoint_result("COc1ccc(C2=NN(C(=N)S)C(c3ccccc3)C2)cc1 (stereo unspecified)")
"61.5 µM (inactive)"
>>> endpoint_result("COc1cc2c(cc1OC)C(c1ccccc1CCCCl)=NCC2")
"> 100 µM (inactive)"

Please turn your attention to the following entry.
// field: GI50; key: Clc1cc2nn(C3CCCCO3)nc2cc1Cl (stereo unspecified) ; value = > 100 µM (inactive)

----------
System: SF-539
Assay remarks: NCI tumour cell line growth inhibition, 48 h
The source made the active and inactive calls. Rule as the data show it: active = GI50 up to about 1.1 µM and inactive = higher.
Outcomes you can answer with include only these: active, inactive

I'd appreciate the recorded outcome for "COC(=O)[C@@H]1CN(C(=O)Cc2ccccc2)C(=O)N1" from this test.
inactive

I'd appreciate the recorded outcome for "COc1ccc2c(c1)nc1n2C(N)=Nc2ccccc2S1" from this test.
inactive

I'd appreciate the recorded outcome for O=C(c1ccccc1)C(c1ccccc1)C1(O)C(=O)Nc2ccc(Br)cc21 (stereo unspecified) from this test.
inactive

I'd appreciate the recorded outcome for "COc1ccc(-c2c3c(nc4nc(SC)nc(SC)c24)CCCC3)cc1OC" from this test.
inactive

I'd appreciate the recorded outcome for N#Cc1nc(CCC(C(=O)O)N2C(=O)c3ccccc3C2=O)oc1N (stereo unspecified) from this test.
inactive

I'd appreciate the recorded outcome for "Cc1cc(C)cc(-n2c3nc(=O)n(C)c(=O)c-3nc3ccccc32)c1" from this test.
inactive

I'd appreciate the recorded outcome for "O=C(CCc1ccc(O)cc1)NCCCNC(=O)CCc1ccc(O)cc1" from this test.
inactive

The measured values listed here are drawn from ChEMBL document CHEMBL1201862.
